# Assay: NCI Yeast Anticancer Drug Screen. Data for the rad14 strain (AID 159);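 also: 0% = growth of vehicle-treated control cultures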
# Condition details: S. cerevisiae rad14 strain growth inhibition; at 100.0 µM; hits give high values
This is part of a sample that, as a whole, favours compounds with a hit. Of some 79,000 tested, about 15% had one in any assay.
// values below are reported growth inhibition
Return type: number; implicit unit %.

Molecule: CC(C)(C)c1ccc(NS(=O)(=O)c2ccc(N)cc2)cc1
Measured result: 40

Molecule: CCCC(O)C1CC(C(C)C)CCC1C (stereo not given)
Measured result: 99

Value of growth inhibition reported for the molecule COC(=O)CC1CCc2c(ccc3ccccc23)C1(C)C(=O)OC (stereo not given) is 10

====

# Assay: NCI Yeast Anticancer Drug Screen. Data for the rad50 strain (AID 155);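 also: 0% = growth of vehicle-only cultures of the same strain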
# Condition details: S. cerevisiae rad50 strain growth inhibition; at 100.0 µM; hits give high values
About 79,000 compounds went through this panel and 15% of them were active in at least one assay; those are over-represented in the sample as a whole.
Assign True to entries whose growth inhibition meets or exceeds 40%; assign False to the rest.

Please review the following examples before continuing.
Compound: O=c1nc2n(Cc3ccccc3)c3ccccc3nc-2c(=O)[nH]1
Classification: False

Compound: C[C](C)(C)[Ge]([O][Ge]([c]1ccccc1)[c]1ccccc1)([O][Ge]([c]1ccccc1)[c]1ccccc1)[C](C)(C)C
Classification: True

Ask: Check this compound for growth inhibition at or above 40%: COC(=O)CC1CCc2c(ccc3ccccc23)C1(C)C(=O)OC (stereo not given)
Result: False

Ask: Check this compound for growth inhibition at or above 40%: `Cc1cc(N(CCOS(C)(=O)=O)CCOS(C)(=O)=O)ccc1C=Nc1ccc(-c2nc(Cc3ccccc3)sc2C)cc1`
Result: True

Ask: Check this compound for growth inhibition at or above 40%: `Cc1c2ccnc(C(=O)NCCN(C)C)c2cc2c3cc(O)ccc3n(C)c12`
Result: True

====

# Assay: NCI Yeast Anticancer Drug Screen. Data for the wt2 strain (AID 169);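 also: 0% = growth of vehicle-treated yeast cultures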
# Condition details: S. cerevisiae wt2 strain growth inhibition; at 33.0 µM; hits give high values
This is part of a sample that, as a whole, favours compounds with a hit. Of some 79,000 tested, about 15% had one in any assay.
Assign Y to entries whose growth inhibition meets or exceeds 10%; assign N to the rest.

Compound: Clc1ccc2c(c1)N(CCCN1CCCC13CCCCC3)c1ccccc1S2
Classification: N
//
Compound: COc1cc(C2c3cc4c(cc3OC(OC(C)=O)C2C)OCO4)cc(OC)c1OC (centres undefined)
Classification: N
//
Compound: O=[N+]([O-])c1cccc2nc3ccccc3c(NCCCn3ccnc3[N+](=O)[O-])c12
Classification: Y
//
Compound: Cc1cc(S(=O)(=O)Nc2nnc3cnc4ccccc4n23)c(S)cc1Cl
Classification: Y
//
Compound: COc1cc(/C=C2\NC(=O)N(/C=C3\C(=O)Oc4ccccc4C3=O)C2=O)ccc1O
Classification: Y

Ask: Check this compound for growth inhibition at or above 10%: `Cc1ccccc1N=C(NO)c1ccccc1`
Result: Y

Ask: Check this compound for growth inhibition at or above 10%: O=C1c2cccnc2C(=O)C2C3C=CC(C3)C12 (centres undefined)
Result: Y

Ask: Check this compound for growth inhibition at or above 10%: `CN(C)c1ccc(N=Nc2ccncc2)cc1`
Result: Y

====

// values below are reported growth inhibition
# Assay: NCI Yeast Anticancer Drug Screen. Data for the bub3 strain (AID 167)
# Condition details: S. cerevisiae bub3 mutant strain, at 50.0 µM (retest, dose inferred, filed as 5.0), hits give high values
The panel holds about 79,000 compounds, 15% with a hit somewhere; the sample as a whole holds those more often.
Return type: number; implicit unit %.

# count of solved cases: 8
Compound: O=C1C(=O)c2ccccc2C(O)=C1C(C1=C(O)c2ccccc2C(=O)C1=O)c1ccc(Cl)cc1
Measured result: 34
--
Compound: CC(=O)OC1CCC2(C)C(=CC(C3C=C4CC(OC(C)=O)CCC4(C)C4=C3C3CC5OC6(CCC(C)CO6)C(C)C5C3(C)CC4)C3=C2CCC2(C)C3CC3OC4(CCC(C)CO4)C(C)C32)C1 (centres undefined)
Measured result: 69
--
Compound: CC(C)(CCCCC(C)(C)[N+](C)(C)C)[N+](C)(C)C
Measured result: 98
--
Compound: O=[N+]([O-])c1cc(Cl)cnc1Br
Measured result: -70
--
Compound: CCCC(=O)Oc1c(C)cc([N+](=O)[O-])cc1[N+](=O)[O-]
Measured result: 99
--
Compound: CN(C)CCNC(=O)c1cccc2c1Oc1c(cccc1[N+](=O)[O-])O2
Measured result: 29
--
Compound: C/C=C/SC(=Nc1ccccc1)Nc1ccccc1
Measured result: 36
--
Compound: Cc1cc(O)c(C(C)C)cc1C1(c2cc(C(C)C)c(O)cc2C)OC(=O)c2ccccc21
Measured result: 98

Turning now to a further compound:
Value of growth inhibition reported for the compound `NC(=O)C(=O)NNc1ccccc1` is 66

====

// values below are reported growth inhibition
# Assay: NCI Yeast Anticancer Drug Screen. Data for the mec2-1 strain (AID 157)
# Condition details: S. cerevisiae mec2-1 strain, at 11.0 µM, hits give high values
# Method: Growth inhibition of yeast strains with defined genetic alterations is measured as a screen for potential anti-cancer activity. Selected strains with alterations in DNA damage repair or cell cycle control were exposed to compounds and growth inhibition was measured relative to vehicle treated controls. The strain used in this assay is mec2-1
This is part of a sample that, as a whole, favours compounds with a hit. Of some 79,000 tested, about 15% had one in any assay.
Return type: number; implicit unit %.

# count of solved cases: 5
Compound: C=C(C(=C)n1nnc(C(=O)OC)c1C(=O)OC)n1nnc(C(=O)OC)c1C(=O)OC
Unit symbol: %
Measured result: -3
--
Compound: Cc1cc(C(C)(C)CC(C)(C)C)ccc1O
Unit symbol: %
Measured result: 3
--
Compound: Cc1c2cccc(Sc3ccccc3)c2c2c3c(cccc13)[S+](c1ccccc1)C2 (stereo unspecified)
Unit symbol: %
Measured result: 98
--
Compound: CN1CCN(C(=O)/C=C/C(=O)c2ccccc2)CC1
Unit symbol: %
Measured result: 35
--
Compound: CC1CC(C)(C)CC(OCCN2CCCCC2)(c2ccccc2)C1 (stereo unspecified)
Unit symbol: %
Measured result: 10

Value of growth inhibition reported for the compound `CCCCCCCCCCCC1=NCCO1` is -13

Value of growth inhibition reported for the compound `O=C1c2ccccc2C(=O)N1CCCC(=O)n1cc(F)c(=O)[nH]c1=O` is 18

Value of growth inhibition reported for the compound CC(=O)OCC(C)Cc1cc2c(cc1Br)OCO2 (stereo unspecified) is -6

Value of growth inhibition reported for the compound OC(/C=C/c1ccccc1)(Cc1cc(-c2ccccc2)n[nH]1)c1ccccc1 (stereo unspecified) is 12

Value of growth inhibition reported for the compound `COc1cc(O)c(O)c(C(C)(C)C)c1` is 0

Value of growth inhibition reported for the compound COc1cc(C2c3cc4c(cc3OC(OC(C)=O)C2C)OCO4)cc(OC)c1OC (stereo unspecified) is -1

====

# Assay: NCI Yeast Anticancer Drug Screen. Data for the wt1 strain (AID 149);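 also: 0% = growth of vehicle-treated wt1 cultures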
# Condition details: S. cerevisiae wt1 strain (SPY 50644) growth inhibition; at 11.0 µM; hits give high values
The panel holds about 79,000 compounds, 15% with a hit somewhere; the sample as a whole holds those more often.
Quantity measured: growth inhibition (%)
Return type: number; implicit unit %.

Compound: CCN(CC)CCNc1ccc([N+](=O)[O-])c2nc3ccccc3c(N)c12
Quantity measured: growth inhibition
Measured result: -13

Compound: CC1SC2(C(=O)Nc3ccc(Cl)cc32)N(c2ccc(Cl)cc2)C1=O (stereo not given)
Quantity measured: growth inhibition
Measured result: -3

Compound: O=[N+]([O-])c1ccc2c(c1)/C(=N/N=C1c3ccccc3Cc3ccccc31)c1cc([N+](=O)[O-])cc([N+](=O)[O-])c1-2
Quantity measured: growth inhibition
Measured result: 99

Compound: CCN(CC)CCNc1ccc2ncn3c4cc(OC)c(OC)c(=O)c4c(O)c1c23
Quantity measured: growth inhibition
Measured result: 2

Compound: O=c1ccc(=O)n(-c2ccccc2)[nH]1
Quantity measured: growth inhibition
Measured result: 29

Value of growth inhibition reported for the compound `COC1=C(N)C(=O)c2nc(-c3nc(C(=O)O)c(C)c(-c4ccc(OC)c(OC)c4O)c3N)ccc2C1=O` is 99

Value of growth inhibition reported for the compound `Cc1cc(C)nc(NS(=O)(=O)c2ccc(Nc3c4ccccc4nc4c(C(=O)NCCO)cccc34)cc2)n1` is -2

Value of growth inhibition reported for the compound COC(=O)C1=C(C(=O)OC)C(C(=O)OC)C(C(=O)OC)C(C(=O)OC)(C(=O)OC)C(C(=O)OC)=C1C(=O)OC (stereo not given) is -25

Value of growth inhibition reported for the compound `CCC(=O)c1cc(C(=O)C(=S)SC)cc(C(=O)C(=S)SC)c1` is 93

Value of growth inhibition reported for the compound `O=c1[nH]c2ccc(Cl)cc2o1` is -33

Value of growth inhibition reported for the compound `c1ccc(-c2cnc3ccccc3c2)cc1` is -12
